test: modulators of S6 phosphorylation in cells, primary screen, cell-based, A549, cytoblot, luminescence, serum-stimulated (AID 1158); conditions: A549 phospho-S6 cytoblot, 5 h, higher = more signal;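 note: serum-stimulated A549 lung adenocarcinoma cells; signal is phosphorylated S6 detected by cytoblot immunostaining with HRP secondary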
Reported endpoint: z-score

compound="Cc1ccc(S(=O)(=O)NC(CCc2ccccc2)CC(=O)C(C)(C)C)cc1 (configuration not stated)" obs_value=-0.566

Query: Could you share which z-score value was measured for `COc1ccc(C#C[C@@H]2C=C[C@H](OC(C)=O)[C@@H](COC(C)=O)O2)cc1` ?
Result: -0.394

Query: Could you share which z-score value was measured for CCOC(=O)[C@H](CC(C)C)NC(=O)CCC1CC(OC(=O)NCc2ccc3c(c2)OCO3)CC2(CCCC(COC(=O)NCc3cccc(C(F)(F)F)c3)O2)O1 (some centres not stated) ?
Result: 0.427

Query: Could you share which z-score value was measured for `C[C@@H]1NC(=O)[C@@H](C)COC(=O)[C@H](C)NC(=O)[C@@H](C)COC1=O` ?
Result: 0.35

Query: Could you share which z-score value was measured for CCOC(=O)[C@H](CC(C)C)NC(=O)CCC1CC(OC(=O)NCc2cccc3ccccc23)CC2(CCCC(COC(=O)NCc3cccc(C(F)(F)F)c3)O2)O1 (some centres not stated) ?
Result: 0.273

Query: Could you share which z-score value was measured for `C=CC[C@@H]1C=C[C@H](ON=C[C@@H](C)[C@H](OCc2ccccc2)C(C)C)[C@@H](CO)O1` ?
Result: -0.544

Query: Could you share which z-score value was measured for `COC(=O)[C@@H]1CC[C@H](C)[C@@H](c2ccc(C)cc2)N1C(=O)c1ccc(C=NOCC[C@@H]2C=C[C@H](OC(C)=O)[C@@H](COC(C)=O)O2)cc1` ?
Result: -0.994

Query: Could you share which z-score value was measured for `CC(C)=CCCC(C)=CCON=C1C[C@@H](O)[C@@H](O)[C@@H]2[C@@H]3C(=O)N(Cc4ccccc4)C(=O)[C@@H]3CC[C@@H]12` ?
Result: -0.444
